Provenance of the data: ChEMBL document CHEMBL1961873

The entries below are paired with their reported inhibition.
target: Serine/threonine-protein kinase MARK1 (Homo sapiens) (UniProt Q9P0L2); conditions: at 0.1 µM
Sequence (Q9P0L2 whole entry, looked up): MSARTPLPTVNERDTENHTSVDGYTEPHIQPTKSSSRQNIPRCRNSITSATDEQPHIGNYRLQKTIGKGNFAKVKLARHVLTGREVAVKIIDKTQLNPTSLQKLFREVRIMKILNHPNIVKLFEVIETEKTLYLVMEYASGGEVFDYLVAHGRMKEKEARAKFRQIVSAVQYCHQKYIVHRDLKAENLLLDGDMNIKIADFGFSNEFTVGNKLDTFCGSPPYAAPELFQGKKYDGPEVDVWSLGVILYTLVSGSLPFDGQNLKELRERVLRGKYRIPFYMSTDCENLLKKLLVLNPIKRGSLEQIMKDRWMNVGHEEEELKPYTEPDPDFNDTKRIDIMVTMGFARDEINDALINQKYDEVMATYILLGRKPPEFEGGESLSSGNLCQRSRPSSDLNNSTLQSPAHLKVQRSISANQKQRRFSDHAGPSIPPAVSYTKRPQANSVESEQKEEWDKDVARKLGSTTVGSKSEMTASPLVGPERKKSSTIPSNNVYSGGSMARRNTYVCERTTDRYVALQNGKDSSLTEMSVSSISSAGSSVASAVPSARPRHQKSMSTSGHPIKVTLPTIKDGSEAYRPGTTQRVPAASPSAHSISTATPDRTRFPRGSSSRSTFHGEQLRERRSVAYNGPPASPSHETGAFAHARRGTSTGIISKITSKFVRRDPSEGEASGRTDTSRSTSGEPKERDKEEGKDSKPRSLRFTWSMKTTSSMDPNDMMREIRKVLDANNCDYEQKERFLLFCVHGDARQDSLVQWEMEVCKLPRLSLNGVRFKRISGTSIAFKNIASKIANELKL
Description: GSK_PKIS: MARK1 mean inhibition at 0.1 uM [Nanosyn]

molecule: NC(=O)c1sc(-n2cnc3ccc(C(F)(F)F)cc32)cc1OCc1ccccc1Br
inhibition, %: 2.69

molecule: c1cc(-c2cnn3nc(N4CCOCC4)ccc23)nc(NC2CC2)n1
inhibition, %: 3.55

molecule: Nc1nc(-c2ccc(F)cc2)c(-c2ccc3ncccc3n2)s1
inhibition, %: 4.82

molecule: FC(F)(F)c1cccc(-c2nn3ncccc3c2-c2ccnc(Nc3ccc4c(c3)OCCO4)n2)c1
inhibition, %: 2.64

molecule: Cc1cccc(Nc2ncc(-c3ccccc3)o2)c1
inhibition, %: 2.41

molecule: CCOc1ccc2c(-c3ccnc(Nc4cccc(C(F)(F)F)c4)n3)cnn2n1
inhibition, %: 2.43

molecule: COc1ccc(-c2cc3c(N)ncnc3o2)cc1
inhibition, %: 0.03

molecule: Fc1ccc(-c2nn3ccccc3c2-c2ccncc2)cc1
inhibition, %: 1.76

molecule: c1ccc(COc2ccc(Nc3ncnc4ccc(-c5ccco5)cc34)cc2)cc1
inhibition, %: 0.18

molecule: COc1ccc(-c2nn3ncccc3c2-c2ccnc(Nc3ccc4c(c3)OCCO4)n2)cc1
inhibition, %: 0.34

molecule: Fc1ccc(-c2nn3ncccc3c2-c2ccnc(Nc3ccc4c(c3)OCCO4)n2)cc1
inhibition, %: 1.97

molecule: CNC(=O)c1cncc(/C=C/c2ccccc2Cl)c1
inhibition, %: 1.46

molecule: CS(=O)(=O)CCNCc1ccc(-c2ccc3ncnc(Nc4ccc(OCc5ccccc5)c(C(F)(F)F)c4)c3c2)o1
inhibition, %: 2.72

molecule: CCn1c(-c2nonc2N)nc2c(C#CC(C)(C)O)nc(OC[C@H](N)c3ccccc3)cc21
inhibition, %: 2.28

molecule: Fc1ccc(-c2cc(-c3c[nH]nc3-c3ccccn3)ccn2)cc1
inhibition, %: 4.11

molecule: COc1cc2c(cc1Nc1nc(Nc3ccsc3C(N)=O)c3cc[nH]c3n1)N(C(=O)CN(C)C)CCC2(C)C
inhibition, %: 6.98

molecule: CC1=C(C(=O)Nc2cc(Cl)c3[nH]ncc3c2)C(c2ccc(C(F)(F)F)cc2)CC(=O)N1 (stereo unspecified)
inhibition, %: 3.77

molecule: CNC(=O)c1cc(-c2ccc(F)cc2)cc(-c2ccc(S(=O)(=O)N3CCCC3)cc2)c1N
inhibition, %: 2.14

molecule: O=C(O[C@H]1CN[C@H](C#Cc2cc3ncnc(Nc4ccc(Cc5ccccc5)cc4)c3s2)C1)N1CCOCC1
inhibition, %: 1.63

molecule: CCn1c(-c2nonc2N)nc2ccccc21
inhibition, %: 2.03

molecule: N#Cc1c(NC(=O)c2ccc(F)cc2)sc2c1CCCC2
inhibition, %: 1.17

---

target: Serine/threonine-protein kinase B-raf (Homo sapiens); conditions: at 1 µM;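 note: reported value is the mean percent inhibition of BRAF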

entry_smiles: COc1cc2ncn(-c3cc(OCc4ccccc4C(F)(F)F)c(C(=O)N(C)C)s3)c2cc1OC
result_unit: %
inhibition: 1.2
//
entry_smiles: COc1cccc(-n2ncc3c(N/N=C/c4ccc(F)cc4)ncnc32)c1
result_unit: %
inhibition: 8.16
//
entry_smiles: CCn1c(-c2nonc2N)nc2c(C#CC(C)(C)O)ncc(OC3CCNCC3)c21
result_unit: %
inhibition: 6.35
//
entry_smiles: COC(=O)Nc1nc2ccc(Oc3ccc(NC(=O)Nc4cccc(Cl)c4)cc3)cc2[nH]1
result_unit: %
inhibition: 17.1
//
entry_smiles: COC(=O)Nc1nc2ccc(S(=O)(=O)c3ccc(NC(=O)Nc4cc(C(F)(F)F)ccc4F)cc3)cc2[nH]1
result_unit: %
inhibition: 3.12
//
entry_smiles: COC(=O)c1sc(-n2cnc3cc(OC)c(OC)cc32)cc1OCc1ccccc1C(F)(F)F
result_unit: %
inhibition: 8.51
//
entry_smiles: c1cc(-c2cnn3nc(N4CCOCC4)ccc23)nc(NC2CC2)n1
result_unit: %
inhibition: 11.5
//
entry_smiles: CC(=O)NCc1cccc(C#Cc2cncnc2Nc2ccc(OCc3cccc(F)c3)c(Cl)c2)c1
result_unit: %
inhibition: 1.33
//
entry_smiles: Fc1ccc(-c2cc(-c3c[nH]nc3-c3ccccn3)ccn2)cc1
result_unit: %
inhibition: 8.05
//
entry_smiles: O=C(Nc1n[nH]c2cc(-c3ccc(F)cc3)ccc12)C1CC1
result_unit: %
inhibition: 5.73
//
entry_smiles: Fc1ccc(-c2nn3ncccc3c2-c2ccnc(Nc3ccc4c(c3)OCCO4)n2)cc1
result_unit: %
inhibition: 25.9
//
entry_smiles: O=C(O[C@H]1CN[C@H](C#Cc2cc3ncnc(Nc4ccc(Cc5ccccc5)cc4)c3s2)C1)N1CCOCC1
result_unit: %
inhibition: 4.23
//
entry_smiles: COc1ccc2c(-c3ccnc(Nc4cccc(OC(F)(F)F)c4)n3)cnn2n1
result_unit: %
inhibition: 7.89
//
entry_smiles: COc1ccc(-c2cc(-c3c[nH]nc3-c3ccccn3)ccn2)cc1
result_unit: %
inhibition: 6.98
//
entry_smiles: FC(F)(F)c1cccc(-c2nn3ncccc3c2-c2ccnc(Nc3ccc4c(c3)OCCO4)n2)c1
result_unit: %
inhibition: 6.42
//
entry_smiles: CN(C)CCOc1ccc(-c2nc(-c3ccncc3)c(-c3ccc4c(c3)CC/C4=N\O)[nH]2)cc1
result_unit: %
inhibition: 88.8
//
entry_smiles: Fc1ccc(-c2nn3ccccc3c2-c2ccncc2)cc1
result_unit: %
inhibition: 7.13
//
entry_smiles: CNC(=O)c1cncc(/C=C/c2ccccc2Cl)c1
result_unit: %
inhibition: 0.08
//
entry_smiles: CN1CCC(n2cnc(-c3ccc(F)cc3)c2-c2ccnc(Nc3ccccc3)n2)CC1
result_unit: %
inhibition: 4.47
//
entry_smiles: Nc1nc(-c2cccc(Cl)c2)c(-c2ccc3ncccc3n2)s1
result_unit: %
inhibition: 9.65

---

The entries below are paired with their reported inhibition.
molecular target: High affinity nerve growth factor receptor (Homo sapiens) (UniProt P04629); settings: at 1 µM;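 note: each value is the mean percent inhibition of TRKA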
Sequence (P04629 33-796 limits assumed): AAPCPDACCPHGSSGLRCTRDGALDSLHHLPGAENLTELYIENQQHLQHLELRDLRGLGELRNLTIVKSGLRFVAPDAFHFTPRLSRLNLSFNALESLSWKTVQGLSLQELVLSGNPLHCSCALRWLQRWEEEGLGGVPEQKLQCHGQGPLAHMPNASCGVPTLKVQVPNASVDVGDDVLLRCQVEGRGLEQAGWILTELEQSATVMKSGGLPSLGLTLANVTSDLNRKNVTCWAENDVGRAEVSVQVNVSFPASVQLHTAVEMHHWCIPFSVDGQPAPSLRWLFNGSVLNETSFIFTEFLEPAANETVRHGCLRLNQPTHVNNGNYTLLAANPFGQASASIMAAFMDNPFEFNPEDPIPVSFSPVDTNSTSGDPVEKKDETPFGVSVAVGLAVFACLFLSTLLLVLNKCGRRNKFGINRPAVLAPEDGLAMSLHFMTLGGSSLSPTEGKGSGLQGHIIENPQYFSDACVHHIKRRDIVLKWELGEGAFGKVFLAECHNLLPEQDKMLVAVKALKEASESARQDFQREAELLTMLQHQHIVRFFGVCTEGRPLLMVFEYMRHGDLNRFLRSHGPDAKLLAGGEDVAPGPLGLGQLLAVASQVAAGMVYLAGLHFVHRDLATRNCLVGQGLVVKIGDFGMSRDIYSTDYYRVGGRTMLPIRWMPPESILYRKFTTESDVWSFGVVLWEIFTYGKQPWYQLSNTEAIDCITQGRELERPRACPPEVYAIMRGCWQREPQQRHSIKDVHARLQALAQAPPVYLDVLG

entry_smiles: COc1ccc2c(-c3ccnc(Nc4cccc(OC(F)(F)F)c4)n3)cnn2n1
result_unit: %
inhibition: 11.1

entry_smiles: FC(F)(F)c1cccc(-c2nn3ncccc3c2-c2ccnc(Nc3ccc4c(c3)OCCO4)n2)c1
result_unit: %
inhibition: 3.48

entry_smiles: Cc1cccc2c1NC(=O)/C2=N\Nc1ccc(S(N)(=O)=O)cc1
result_unit: %
inhibition: 1.49

entry_smiles: COC(=O)Nc1nc2ccc(Oc3ccc(NC(=O)Nc4cccc(Cl)c4)cc3)cc2[nH]1
result_unit: %
inhibition: 41.6

entry_smiles: Fc1ccc(-c2nn3ccccc3c2-c2ccncc2)cc1
result_unit: %
inhibition: 0.45

---

Biological target: Ephrin type-A receptor 3 (Homo sapiens) (UniProt P29320);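 note: mean inhibition value reported from the GSK PKIS kinase profiling screen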
Sequence (whole entry): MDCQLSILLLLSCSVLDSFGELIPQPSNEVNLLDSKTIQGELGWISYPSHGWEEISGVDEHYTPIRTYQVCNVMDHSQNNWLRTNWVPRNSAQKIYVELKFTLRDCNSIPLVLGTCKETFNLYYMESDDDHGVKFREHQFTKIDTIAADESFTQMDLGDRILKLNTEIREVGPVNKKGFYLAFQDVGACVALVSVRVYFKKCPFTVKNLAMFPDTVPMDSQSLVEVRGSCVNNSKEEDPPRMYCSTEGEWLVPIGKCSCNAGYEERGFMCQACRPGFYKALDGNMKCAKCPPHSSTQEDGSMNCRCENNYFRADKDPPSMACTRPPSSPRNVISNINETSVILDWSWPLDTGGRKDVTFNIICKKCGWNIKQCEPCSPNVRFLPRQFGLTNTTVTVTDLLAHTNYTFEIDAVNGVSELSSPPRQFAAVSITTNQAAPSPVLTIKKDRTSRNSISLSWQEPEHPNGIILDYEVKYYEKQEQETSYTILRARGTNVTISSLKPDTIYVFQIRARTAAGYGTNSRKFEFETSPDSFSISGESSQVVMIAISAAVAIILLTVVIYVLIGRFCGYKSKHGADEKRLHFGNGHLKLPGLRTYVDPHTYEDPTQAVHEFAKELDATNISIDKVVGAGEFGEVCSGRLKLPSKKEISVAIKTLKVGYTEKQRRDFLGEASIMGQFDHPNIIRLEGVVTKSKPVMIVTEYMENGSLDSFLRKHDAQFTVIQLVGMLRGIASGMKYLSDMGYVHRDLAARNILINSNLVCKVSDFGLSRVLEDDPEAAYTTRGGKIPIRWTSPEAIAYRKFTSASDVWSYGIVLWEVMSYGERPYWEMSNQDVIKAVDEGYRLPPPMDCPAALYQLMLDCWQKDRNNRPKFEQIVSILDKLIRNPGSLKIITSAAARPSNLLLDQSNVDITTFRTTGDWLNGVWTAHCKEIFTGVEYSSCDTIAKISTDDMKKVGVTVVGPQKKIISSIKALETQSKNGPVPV
Settings: at 1 µM
The entries below are paired with their reported inhibition.

compound: NS(=O)(=O)c1ccc(Nc2ncc(-c3ccccc3)o2)cc1
inhibition [%]: 4.57
--
compound: CC(C)COC(=O)c1ccc2c(c1)/C(=C/Nc1ccc(S(N)(=O)=O)cc1)C(=O)N2
inhibition [%]: 0.31
--
compound: CCCN(CCS(C)(=O)=O)Cc1ccc(-c2ccc3ncnc(Nc4ccc(OCc5cccc(F)c5)c(Cl)c4)c3c2)o1
inhibition [%]: 2.25
--
compound: CC1=C(C(=O)Nc2cc(Cl)c3[nH]ncc3c2)C(c2ccc(C(F)(F)F)cc2)CC(=O)N1 (stereo not given)
inhibition [%]: 2.48
--
compound: COc1cc(N2CCN(C(C)C)CC2)ccc1Nc1nc(Nc2ccc(F)cc2C(N)=O)c2cc[nH]c2n1
inhibition [%]: 1.28
--
compound: c1ccc(COc2ccc(Nc3ncnc4ccc(-c5ccco5)cc34)cc2)cc1
inhibition [%]: 0.71
--
compound: CCNC(=O)O[C@H]1CN[C@H](C#Cc2cc3ncnc(Nc4ccc(OCc5cccc(F)c5)c(Cl)c4)c3s2)C1
inhibition [%]: 4.34
--
compound: COc1cccc(-c2c[nH]c3c(N/N=C/c4ccncc4)ncnc23)c1
inhibition [%]: 6.01
--
compound: COC(=O)Nc1nc2ccc(S(=O)(=O)c3ccc(NC(=O)Nc4cc(C(F)(F)F)ccc4F)cc3)cc2[nH]1
inhibition [%]: 4.35
--
compound: CC(=O)Nc1cccc(C#Cc2cncnc2Nc2ccc(OCc3cccc(F)c3)c(Cl)c2)c1
inhibition [%]: 3.23
--
compound: Fc1ccc(-c2nn3ccccc3c2-c2ccncc2)cc1
inhibition [%]: 5.1
--
compound: COc1ccc(-c2cc(-c3c[nH]nc3-c3ccccn3)ccn2)cc1
inhibition [%]: 7.51
--
compound: COc1ccc(CNC(=O)c2ccc(-c3cc(-c4nnc(C)o4)ccc3C)cc2)cc1
inhibition [%]: 4.21
--
compound: CCn1c(-c2nonc2N)nc2cnc(Oc3cccc(NC(=O)c4ccc(N(C)C)cc4)c3)cc21
inhibition [%]: 4.01
--
compound: FC(F)(F)c1cccc(-c2nn3ncccc3c2-c2ccnc(Nc3ccc4c(c3)OCCO4)n2)c1
inhibition [%]: 3.44
--
compound: COc1ccc2c(-c3ccnc(Nc4cccc(OC(F)(F)F)c4)n3)cnn2n1
inhibition [%]: 7.93
--
compound: CC(=O)NCc1cccc(C#Cc2cncnc2Nc2ccc(OCc3cccc(F)c3)c(Cl)c2)c1
inhibition [%]: 0.64
--
compound: NS(=O)(=O)c1ccc(N/N=C2\C(=O)Nc3ccc4ncccc4c32)cc1
inhibition [%]: 12.4
--
compound: Nc1nc(-c2cccc(Cl)c2)c(-c2ccc3ncccc3n2)s1
inhibition [%]: 4.27
--
compound: CN1CCC(n2cnc(-c3ccc(F)cc3)c2-c2ccnc(N)n2)CC1
inhibition [%]: 2.95
